FYI, the data here is from ChEMBL document CHEMBL1133841.

# Assay System: Serine/threonine-protein phosphatase PP1 catalytic subunit
# Test: Inhibitory concentration against protein phosphatase 1 was determined
Measure: pIC50
Expect pIC50 as a plain number equal to -log10 of the molar concentration.

Report pIC50, nothing else, for this compound: CCOC(=O)C1C(C(=O)O)[C@@H]2CC[C@H]1O2 (stereo partly specified)
5.53

====

# Assay System: Serine-threonine protein phosphatase 2A regulatory subunit (Gallus gallus, UniProt Q8AWE3)
# Sequence (Q8AWE3 whole entry): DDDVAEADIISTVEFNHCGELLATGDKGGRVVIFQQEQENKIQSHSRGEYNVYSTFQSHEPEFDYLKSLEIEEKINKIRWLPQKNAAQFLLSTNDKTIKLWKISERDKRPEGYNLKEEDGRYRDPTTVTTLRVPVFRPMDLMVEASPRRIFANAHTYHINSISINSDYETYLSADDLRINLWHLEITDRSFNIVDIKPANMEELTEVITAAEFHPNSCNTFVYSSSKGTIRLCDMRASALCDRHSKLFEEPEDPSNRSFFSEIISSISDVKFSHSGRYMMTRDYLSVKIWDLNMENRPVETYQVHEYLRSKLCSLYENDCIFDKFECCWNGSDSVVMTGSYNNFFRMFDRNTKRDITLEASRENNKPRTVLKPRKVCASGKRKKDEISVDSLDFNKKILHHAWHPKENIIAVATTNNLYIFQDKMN
# Test: Inhibitory concentration against protein phosphatase 2A (PP2A) was determined
Quick rule for you: IC50 under 100 µM gets yes (1), anything else gets no (0).

Strictly below 100 µM in IC50? `O=C(O)[C@@H](Cc1c[nH]c2ccccc12)N1C(=O)[C@@H]2[C@H](C1=O)[C@H]1CC[C@@H]2O1`
no (0)

Strictly below 100 µM in IC50? `O=C(O)[C@@H](Cc1cnc[nH]1)N1C(=O)[C@@H]2[C@H](C1=O)[C@H]1CC[C@@H]2O1`
yes (1)

Strictly below 100 µM in IC50? `O=C(O)[C@@H](Cc1ccccc1)N1C(=O)[C@@H]2[C@H](C1=O)[C@H]1CC[C@@H]2O1`
no (0)

Strictly below 100 µM in IC50? `O=C(O)CC[C@H](C(=O)O)N1C(=O)[C@@H]2[C@H](C1=O)[C@H]1CC[C@@H]2O1`
yes (1)

Strictly below 100 µM in IC50? `O=C(O)[C@H](Cc1c[nH]cn1)N1C(=O)[C@@H]2[C@H](C1=O)[C@H]1CC[C@@H]2O1`
yes (1)

Strictly below 100 µM in IC50? `CC(C)C[C@H](C(=O)O)N1C(=O)[C@@H]2[C@H](C1=O)[C@H]1CC[C@@H]2O1`
no (0)

Strictly below 100 µM in IC50? `O=C(O)[C@H](Cc1ccccc1)N1C(=O)[C@@H]2[C@H](C1=O)[C@H]1CC[C@@H]2O1`
no (0)

Strictly below 100 µM in IC50? `C[C@H](C(=O)O)N1C(=O)[C@@H]2[C@H](C1=O)[C@H]1CC[C@@H]2O1`
no (0)

Strictly below 100 µM in IC50? `CC(C)C[C@@H](C(=O)O)N1C(=O)[C@@H]2[C@H](C1=O)[C@H]1CC[C@@H]2O1`
no (0)

Strictly below 100 µM in IC50? `CSC[C@@H](C(=O)O)N1C(=O)[C@@H]2[C@H](C1=O)[C@H]1CC[C@@H]2O1`
no (0)

Strictly below 100 µM in IC50? `C[C@@H](C(=O)O)N1C(=O)[C@@H]2[C@H](C1=O)[C@H]1CC[C@@H]2O1`
no (0)

Strictly below 100 µM in IC50? `O=C(O)[C@H](Cc1c[nH]c2ccccc12)N1C(=O)[C@@H]2[C@H](C1=O)[C@H]1CC[C@@H]2O1`
no (0)
